# Tested on: SNB-19 CNS
# PROTOCOL DETAILS: NCI-60 one-dose screen, 48 h
# PROTOCOL CONDITIONS: 10 µM unless noted
About 83,000 compounds went through this panel and 20% of them were active in at least one assay; those are over-represented in the sample as a whole. Active and inactive are the calls of the source. Rule for the calls: active = growth percent below 10; inactive = the rest.
Respond using exactly one of the listed classes: active, inactive

Which outcome was entered for the molecule CCOC(=O)c1n[nH]n2c1nc(=O)c1cnn(C)c12 in this test?
inactive

// param item: COC(=O)Cc1nc(C#N)c(N(C)C)o1 ; yields the recorded call
inactive

Which outcome was entered for the molecule C=C1C(=O)O[C@H]2[C@H]1CC/C(COC(=O)NCCCCCCCCNC(=O)OC/C1=C/CC[C@@]3(C)O[C@H]3[C@H]3OC(=O)C(=C)[C@@H]3CC1)=C\CC[C@@]1(C)O[C@@H]21 in this test?
active

Please indicate how the test categorized Oc1c(I)cc(-c2nc3ccccc3s2)cc1CN(Cc1ccccn1)Cc1ccccn1 .
inactive

Per the records of this test, what outcome belongs to COc1cc(C(=O)c2c(N)ncn2-c2ccccc2)cc(OC)c1OC ?
inactive

Please let me know the test result on file for O=C(N/N=C/c1ccc([N+](=O)[O-])cc1)c1ccc2nc(-c3ccc(Cl)cc3)[nH]c2c1 .
inactive

In this assay, the call recorded for O=C(CCCCCCN1CC(=O)N2[C@@H](C3CCCCC3)c3[nH]c4ccccc4c3C[C@H]2C1=O)NO was what?
inactive

Name the outcome recorded for O=C(CN1CCN(c2cc3c(cc2F)c(=O)c(C(=O)O)cn3C2CC2)CC1)N/N=C/c1ccncc1 in the assay.
inactive

GET /call?item= COc1cccc(NC(=O)c2cccc(C3CCc4c(cc(OC)c(OC)c4OC)O3)c2)c1 (configuration not stated) returns the recorded outcome of this test.
inactive

Hi team, can someone confirm the assay call for CC(C)c1ccc(C(=O)Nc2sc3cc(O)ccc3c2C#N)cc1 ?
inactive

Entry Cn1c(/C=C/[N+](=O)[O-])cc2ccccc21 : call = ?
inactive

Given COc1cc(Nc2ncccc2NC(=O)c2cn(Cc3cccc(Oc4ccccc4)c3)nn2)cc(OC)c1 , state the outcome it received in this test.
inactive

====

Provide the reported growth of each item.
# Test system: OVCAR-5 ovarian
# PROTOCOL DETAILS: NCI-60 one-dose screen, 48 h (100 = growth as untreated, 0 = no growth, -100 = all killed)
# PROTOCOL CONDITIONS: 10 µM unless noted
# Protocol: Growth inhibition of the OVCAR-5 human tumor cell line is measured as a screen for anti-cancer activity. Cells are grown in 96 well plates and exposed to the test compound for 48 hours. Compounds are tested at a single concentration, which is 10^-5 M for most compounds. The reported endpoint is percent growth (GI% or GIPRCNT), where numbers from 0 - 100% represent growth inhibition, and numbers from -100% - 0 represent cell death. For example, a value of 40 represents 60% growth inhibition. […]
About 83,000 compounds went through this panel and 20% of them were active in at least one assay; those are over-represented in the sample as a whole. Calls of active or inactive are those of the source. Rule for the calls: active = growth percent below 10; inactive = the rest.

I am curious: what growth value has been reported for N=C(N)c1ccc(-c2ccc(-c3ccc(Cl)cc3)o2)o1 ?
3.3% (active)

Can you share its growth? I mean this compound: CCCCCCCCCCCCCCCCCCOc1ccccc1CC(=O)NCC[N+]1(C)CCOCC1
26.3% (inactive)

Need growth, item CCOC(=O)Cn1c(=O)c2c3ccccc3n(C)c2n2nnc(-c3ccccc3)c12
74.3% (inactive)

Bench note: what growth did O=C(N/N=C/c1ccc([N+](=O)[O-])cc1)c1ccc2nc(-c3ccc(Cl)cc3)[nH]c2c1 show?
53.2% (inactive)

Look up growth: COc1cc(-c2nc3occn3c2-c2ccnc(NCCCNS(=O)(=O)c3ccccc3)n2)ccc1F
111% (inactive)

Entry CCCCCCCCn1ccc2cc(NC(=O)Cn3cc(CN4CCOCC4)nn3)ccc21 : reported growth = ?
91.1% (inactive)

Reported growth, compound Cc1nc2sc(C(=O)Nc3ccc(Cl)cc3)c(N)c2cc1C(O)c1ccccc1 (stereo not given) : ____
59.6% (inactive)

I have this compound here, COc1cc(C2Cc3ncccc3-c3[nH]c(=O)c4cccnc4c32)cc(OC)c1OC (stereo not given) , and I need its recorded growth.
52.2% (inactive)

Record request: growth value, item Cc1ccc(-c2nc(C(Cl)Cl)nc3cc(C)nn23)cc1
2.16% (active)

What does the record list as growth for Cc1ncc(C(=O)Nc2ccc(CN3CCN(C)CC3)c(C(F)(F)F)c2)cc1C#Cc1cnc(N)c2cnccc12 ?
12.5% (inactive)

====

# System: ACHN renal
# PROTOCOL DETAILS: NCI-60 one-dose screen, 48 h
# PROTOCOL CONDITIONS: 10 µM unless noted
The panel holds about 83,000 compounds, 20% with a hit somewhere; the sample as a whole holds those more often. Calls of active or inactive are those of the source. How the source made its calls: active means growth percent below 10; inactive means the rest.
Return exactly one item of active, inactive

Could you check what this test reported for Cc1cscc(C)c1=S ?
active

# lookup: test call for O=C(Nc1ccc(F)cc1)Nc1ccccc1CNc1nc(Nc2ccc(OCCN3CCCC3)cc2)ncc1Cl
active

What outcome does the record of this test show for C/C(=N\O)C(=O)NCCCCCC(=O)Nc1ccccc1 ?
inactive

Tell me the recorded outcome of this test for O=C(/C=C/C12c3ccccc3C(c3ccccc31)C1C(=O)NC(=O)C12)c1ccccn1 (stereo not drawn) .
active

Per the assay record, what outcome was assigned to Clc1nn2c(Cn3cnc4c(NCc5ccccc5)ncnc43)nnc2c2ccccc12 ?
inactive

What did the test return for CCOC(=O)c1c(C)c2c(n1C)CSc1cc(S(=O)(=O)c3ccccc3)c(=O)[nH]c1-2 ?
inactive

Check the results log: what was the call for CO[C@H](C(=O)[C@@H](O)[C@@H](C)O)[C@@H]1Cc2cc3cc(O[C@H]4C[C@@H](O[C@H]5C[C@@H](O)[C@H](O)C(C)O5)[C@H](O)C(C)O4)c(C)c(O)c3c(O)c2C(=O)[C@H]1O[C@H]1C[C@@H](O[C@H]2C[C@@H](O[C@H]3C[C@@H](OC)[C@H](O)C(C)O3)[C@@H](O)C(C)O2)C(O)(O)C(C)O1 (stereo partly drawn) ?
active

Kindly provide the recorded test outcome for the following compound: O=C1NC(=C(Cl)Cl)/C(=N/S(=O)(=O)N2CCCCC2)N1
inactive

# fetch the recorded call for CC1(C)CC[C@]2(C(=O)O)CC[C@]3(C)C(=CC[C@@H]4[C@@]5(C)C[C@@H](Cc6cn([C@@H]7O[C@H](CO)[C@@H](O)[C@H](O)[C@H]7O)nn6)[C@H](O)C(C)(C)[C@@H]5CC[C@]43C)[C@@H]2C1 here
inactive

// outcome(item) with item = Cc1nc2sc(C(=O)Nc3ccc(Cl)cc3)c(N)c2cc1C(O)c1ccccc1 (stereo not drawn)
inactive

Short answer needed: outcome of this test for Cc1ccc2nc(Cl)c(Cn3nnnc3SCc3ccccc3)cc2c1 ?
inactive

Would you mind telling me which call this test gave Cc1cc(C(=O)Nc2cc(Nc3ncccc3-c3ncnc4nc[nH]c34)ccc2F)cc(C(F)(F)F)c1 ?
inactive

Query: recorded result category for C[C@@H](CO)[C@@H]1CC[C@]2(C(=O)N3CCN(C)CC3)CC[C@]3(C)[C@H](CC[C@@H]4[C@@]5(C)CC[C@H](O)C(C)(C)[C@@H]5CC[C@]43C)[C@@H]12 in this test
inactive

Outcome logged for O=C(Cn1nnc([N+](=O)[O-])n1)c1ccccc1 in this assay:
inactive

What did this assay record as the result for O=c1ccc2nc(C(F)(F)F)nn(-c3ccccc3)c-2c1 ?
active

Test call for this compound, please: NC(CSC(c1ccccc1)(c1ccccc1)c1ccc2c(c1)OCO2)C(=O)O (stereo not drawn)
inactive

Fill in: this test's call for CC12CCC(/C(=C/NNc3ccc([N+](=O)[O-])cc3[N+](=O)[O-])C1=O)C2(C)C (stereo not drawn) is ___
inactive

# fetch the recorded call for CC1(C)OC(=O)C(=Cc2cccc(Br)c2)C(=O)O1 here
inactive

# lookup: test call for C=C1C(=O)O[C@H]2[C@H]1CC/C(Cn1cc(-c3cc(C(F)(F)F)cc(C(F)(F)F)c3)nn1)=C\CC[C@@]1(C)O[C@@H]21
active

Hi team, can someone confirm the assay call for C#CCOc1ccc2ncnc(Nc3cccc(NC(=O)CCl)c3)c2c1 ?
inactive

What is the recorded call for this compound in the test? COc1cc2c3c(c1O)-c1ccccc1[C@@H]1OC(=O)N(CC2)[C@H]31
inactive

Recorded call for C=C1C(=O)O[C@H]2[C@H]1CC/C(COC(=O)/C=C\C(=O)NCc1ccc(Cn3c(=O)sn(-c4ccccc4)c3=O)cc1)=C\CC[C@@]1(C)O[C@@H]21 ?
inactive

Hi, do you know how Cc1ccc(-c2nc(C(Cl)Cl)nc3cc(C)nn23)cc1 came out in this test?
active

====

# Test system: SF-295 CNS
# PROTOCOL DETAILS: NCI-60 one-dose screen, 48 h (100 = growth as untreated, 0 = no growth, -100 = all killed)
# PROTOCOL CONDITIONS: 10 µM unless noted
The panel holds about 83,000 compounds, 20% with a hit somewhere; the sample as a whole holds those more often. The source made the active and inactive calls. Rule for the calls: active = growth percent below 10; inactive = the rest.
METRIC: growth

# get_value(readout='growth', item= Cc1cscc(C)c1=S )
76% (inactive)

I am curious: what growth value has been reported for O=C(O)c1cccc(N/C=C/C(=O)c2cc3cc(Br)ccc3oc2=O)c1 ?
104% (inactive)

Can you look up the measured growth of Cn1c(/C=C/[N+](=O)[O-])cc2ccccc21 for me?
40.4% (inactive)

Value lookup for growth; key = O=C(/C=C/c1cccc(Cl)c1)c1cccc(OCCCCOc2cccc(C(=O)/C=C/c3cccc(Cl)c3)c2)c1
103% (inactive)
